# Tested on: UACC-62
# PROTOCOL SUMMARY: NCI 60 antitumor screening (single dose / five doses)
# Format: cell-based
# PARTICULARS: Homo sapiens; UACC-62 (melanoma), single dose 10 μM; read-out: Growth inhibition percentage (GI %)
// reported inhibition at 10 µM for each item listed
State the answer as a number, implicitly in %.

[[record]]
compound = "Clc1cccc(/C=N/Nc2nc(N/N=C/c3cccc(Cl)c3)nc(N3CCCCC3)n2)c1 [compound 7d]"
readout_name = "inhibition at 10 µM"
measured_result = 20.8


Respond only with inhibition at 10 µM recorded for CN(C)c1ccc(/C=N/Nc2nc(N/N=C/c3ccc(N(C)C)cc3)nc(N3CCCCC3)n2)cc1 [compound 7g]
-0.61

Respond only with inhibition at 10 µM recorded for Clc1cccc(/C=N/Nc2nc(N/N=C/c3cccc(Cl)c3Cl)nc(N3CCCCC3)n2)c1Cl [compound 7h]
31.7

Respond only with inhibition at 10 µM recorded for Brc1ccccc1/C=N/Nc1nc(N/N=C/c2ccccc2Br)nc(N2CCOCC2)n1 [compound 6b]
-2.17
